Molecular target: T1, soluble human CD3 epsilon chain (human, UniProt P07766 23-126)
T1 construct: also called CD3ε
T1 sequence (P07766 23-126 limits assumed): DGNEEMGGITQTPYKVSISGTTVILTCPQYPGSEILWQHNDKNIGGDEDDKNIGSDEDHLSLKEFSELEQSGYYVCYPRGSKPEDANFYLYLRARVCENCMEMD
Experiment: SPR
property measured: pKd
Expect pKd as a plain number equal to -log10 of the molar concentration.

Briefly, pKd measured for TR01H082-E22Hh/none-Hi-Kn010G3/L0267-k0 (antibody, V domains shown, one-arm) VH: QVQLVESGGGLVQPGRSLRLSCAASGFTFSNAWMHWVRQAPGKGLEWVAQIKDKSQNYATYYAESVKGRFTISRDDSKNSLYLQMNSLKTEDTAVYYCRYVHYAAGYGVDAWGQGTTVTVSS VL: DIVMTQSPLSLPVTPGEPASISCRPSQSPVHSNRNTYLHWYQQKPGQAPRLLIYKVSNRFSGVPDRFSGSGSGTDFTLKISRVEAEDVGVYYCVQGTQVPYTFGQGTKLEIK : 7.64

For this binder ( TR01H091-E22Hh/none-Hi-Kn010G3/L0011-k0 (antibody, V domains shown, one-arm) VH: QVQLVESGGGLVQPGRSLKLSCAASGFTFSNAWMHWVRQAPGKGLEWVAQIKDKSQNYATYYAESVKGRFTISRDDSKNSLYLQMNSLKTEDTAVYYCRYVHYAAGYGVDAWGQGTTVTVSS VL: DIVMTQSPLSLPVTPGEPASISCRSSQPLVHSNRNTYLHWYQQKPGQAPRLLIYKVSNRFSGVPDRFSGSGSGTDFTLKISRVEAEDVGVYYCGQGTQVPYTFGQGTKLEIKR ), measured pKd is 7.18

Lab note: TR01H055-E22Hh/none-Hi-Kn010G3/L0000-k0 (antibody, V domains shown, one-arm) VH: QVQLVESGGGLVQPGRSLRLSCAASGFTFSNAWMHWVRQAPGKGLEWVAQIKDKSNNYATYYAESVKGRFTISRDDSKNSLYLQMNSLKTEDTAVYYCRYVHYSASYGVDIWGQGTTVTVSS VL: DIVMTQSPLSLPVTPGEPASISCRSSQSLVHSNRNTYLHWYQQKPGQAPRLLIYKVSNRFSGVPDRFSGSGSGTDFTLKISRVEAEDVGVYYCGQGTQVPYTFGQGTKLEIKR gave pKd of 7.41

The measured pKd associated with TR01H067-E22Hh/none-Hi-Kn010G3/L0212-k0 (antibody, V domains shown, one-arm) VH: QVQLVESGGGLVQPGRSLRLSCAASGFTFSNAWMHWVRQAPGKGLEWVAQIKDKSQNYATYYAESVKGRFTISRDDSKNSLYLQMNSLKTEDTAVYYCRYVHYAASYGVDAWGQGTTVTVSS VL: DIVMTQSPLSLPVTPGEPASISCRPSQSPVHSNRNTYLHWYQQKPGQAPRLLIYKVSNRFSGVPDRFSGSGSGTDFTLKISRVEAEDVGVYYCYQGTQVPYTFGQGTKLEIKR reads 8.23

Data point: TR01H040-E22Hh/none-Hi-Kn010G3/L0217-k0 (antibody, V domains shown, one-arm) VH: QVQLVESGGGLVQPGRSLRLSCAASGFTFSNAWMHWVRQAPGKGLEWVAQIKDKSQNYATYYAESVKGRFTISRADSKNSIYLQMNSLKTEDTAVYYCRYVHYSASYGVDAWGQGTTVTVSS VL: DIVMTQSPLSLPVTPGEPASISCRPSQSLVHSNRNTYLHWYQQKPGQAPRLLIYKVSNRFRGVPDRFSGSGSGTDFTLKISRVEAEDVGVYYCGQGTQVPYTFGQGTKLEIK ; pKd = 7.68

The values you see were collected from patent US20250066503A1.
